Sourced from paper PMC7369641

molecular target: Recombinant firefly luciferase (Photinus pyralis, UniProt P08659); experiment: Firefly luciferase biochemical inhibition assay; conditions: biochemical firefly luciferase inhibition; read-out: Fluc IC50±SEM
Sequence (P08659 whole entry): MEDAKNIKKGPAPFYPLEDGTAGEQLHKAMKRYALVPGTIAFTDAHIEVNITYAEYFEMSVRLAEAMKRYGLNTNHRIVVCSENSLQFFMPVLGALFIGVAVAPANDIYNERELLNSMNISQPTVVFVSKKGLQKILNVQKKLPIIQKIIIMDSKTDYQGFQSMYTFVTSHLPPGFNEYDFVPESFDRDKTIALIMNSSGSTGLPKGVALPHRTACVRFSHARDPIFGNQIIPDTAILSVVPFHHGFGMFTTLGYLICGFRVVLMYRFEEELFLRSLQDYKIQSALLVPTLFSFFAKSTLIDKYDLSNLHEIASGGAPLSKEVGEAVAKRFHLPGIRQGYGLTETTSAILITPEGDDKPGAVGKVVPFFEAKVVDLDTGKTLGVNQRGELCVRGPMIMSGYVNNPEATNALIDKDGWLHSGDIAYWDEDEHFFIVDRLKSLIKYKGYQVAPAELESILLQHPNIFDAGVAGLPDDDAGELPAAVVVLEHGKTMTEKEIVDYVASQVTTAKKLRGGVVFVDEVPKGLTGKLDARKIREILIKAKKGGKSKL
Experimental Endpoint: IC50 (µM)

[
  {
    "Molecule": "CCP(=O)(OC)c1ccc2oc(-c3cccc(C(F)(F)F)c3)nc2c1 (racemic) [(±)-4]",
    "Measured Value": 12.1
  }
]
